Entries and their pKd values follow.
- tgt: HLA-B*44:02
- measurement notes: IEDB peptide-MHC binding, purified MHC/direct/fluorescence; filed as Kd, often an IC50 or EC50 that approximates it; bounds were set here for any values at or beyond the usual limits of such assays
- stated conditions: source organism: Vibrio cholerae
pKd: −log10 of the molar value.

- ordered residues: "GKFFAQAFL"
  pKd: "≤ 4.70"
- ordered residues: "SVMPAWQEK"
  pKd: "≤ 4.70"

----------
- tgt: HLA-B*15:01
- measurement notes: IEDB peptide-MHC binding, purified MHC/competitive/fluorescence; bounds were set here for any values at or beyond the usual limits of such assays
- stated conditions: source organism: Vaccinia virus WR
pIC50: −log10 of the molar value.
measured parameter: pIC50

- ordered residues: "KNKLYLVDY"
  reading: 4.47
